# Test system: KB-3-1
# assay-explanation: Cytotoxic Profiling of Annotated Libraries Using Quantitative High-Throughput Screening (AID 1296008); also: nearly all actives have a fitted effect of over 60% in size; as to max response: % is scaled to controls: 0 for no effect and ±100 for the full control effect
# experimental-parameters: Five cell lines viability, CellTiter-Glo ATP luminescence, 48-72 h; stronger effect = lower value
Records with an inconclusive call do not appear. Activity calls are given as the source filed them. Calls follow the shape of the dose curve; as a rule, active = well fitted inhibition curve with a large enough effect; inconclusive = small, poorly fitted or top-dose-only effect; inactive = flat fitted curve, though single readings scatter.
measurement-name: max response

{"columns": ["compound", "measurement-name", "result"],
 "data": [
  ["COc1cccc2c1[C@]13CCN(CC4CC4)[C@H](C2)[C@]1(OC)CCC(=O)C3", "max response", "7.72% (inactive)"],
  ["O=S(=O)(c1ccc(Cl)cc1)c1ccc(Cl)cc1", "max response", "-10.2% (inactive)"],
  ["CC(C)N[C@@H]1CCn2c(=O)[nH]c3cccc(c32)[C@@H]1O", "max response", "6.91% (inactive)"],
  ["C[C@@H]1CC[C@H]2[C@@H](C)C(=O)O[C@@H]3O[C@@]4(C)CC[C@H]1[C@]32OO4", "max response", "-6.88% (inactive)"],
  ["COCCOCCO", "max response", "-8.22% (inactive)"]
]}

Parameter requested: max response. Apply to each item below.
1. CS(=O)(=O)c1ccc(C(=O)C2C(=O)CCCC2=O)c([N+](=O)[O-])c1
2. COC(=O)[C@@H](N)CCCN=C(N)N[N+](=O)[O-]

Output:
1: -20.3% (inactive); 2: 9.25% (inactive)

###

# Tested on: MKL-2
# assay-explanation: qHTS assay to identify novel small-molecules to repurpose for Merkel cell carcinoma treatment (AID 1296009); also: nearly all actives have a fitted effect of over 60% in size
# experimental-parameters: MCC and control cell lines, CellTiter-Glo viability, 72 h; series mostly up to 46 µM
Records with an inconclusive call do not appear. The source made the active and inactive calls. Calls come from the whole dose curve; as a rule, active = well fitted inhibition curve with a large enough effect; inconclusive = small, poorly fitted or top-dose-only effect; inactive = flat fitted curve, though single readings scatter.
Permitted responses: active, inactive

Here are 6 compounds together with their reported answers.
{"columns": ["compound", "class"],
 "data": [
  ["C[C@]12CC[C@H]3[C@@H](CCC4=CC(=O)CC[C@@]43C)[C@H]1CC[C@H]2OC(=O)CCC1CCCC1", "inactive"],
  ["N=c1c2c(-c3ccccc3)c(-c3ccccc3)n(Cc3ccccc3)c2ncn1C1CCC(O)CC1 (configuration not stated)", "active"],
  ["O=C(O)C(Cl)Cl", "inactive"],
  ["CC(C)[C@]12O[C@@H]1[C@@H]1O[C@]13[C@]1(O[C@H]1C[C@@H]1C4=C(CC[C@@]13C)C(=O)OC4)[C@H]2O", "inactive"],
  ["COCCOCCO", "inactive"],
  ["C=C[C@@H]1CN2CCC1C[C@H]2[C@H](O)c1ccnc2ccccc12 (some centres not stated)", "inactive"]
]}

Now consider a different compound.
Task: Identify the outcome logged in this assay for the compound shown: CN[C@@H]1Cc2cccc3[nH]c(=O)n(c23)C1
Output: inactive

###

# assay-explanation: Primary qHTS to identify inhibitors of SARS-CoV-2 cell entry (AID 1645846); also: nearly all actives have a fitted effect of over 45% in size; also: potency is read from the fitted curve at half-maximal effect
# experimental-parameters: SARS-CoV-2 pseudovirus cell entry assay, luminescence; series mostly up to 57.1 µM
Inconclusive results are not listed. Activity calls are given as the source filed them. The call rests on the fitted dose curve.

{"columns": ["mol", "Potency"],
 "data": [
  ["Cc1nc(N)sc1-c1ccnc(Nc2ccc(N3CCOCC3)cc2)n1", "3.16 µM (active)"],
  ["CC(C)c1ccc2c(c1)c(SC(C)(C)C)c(CC(C)(C)C(=O)O)n2Cc1ccc(Cl)cc1", "inactive"],
  ["Cc1cc2c(cc1C1(c3ccc(C(=O)O)cn3)CC1)C(C)(C)CCC2(C)C", "inactive"],
  ["S=C(NCc1ccc2c(c1)OCO2)N1CCN(c2ncnc3c2oc2ccccc23)CC1", "6.31 µM (active)"]
]}

###

# Tested on: HEK293
# assay-explanation: Cytotoxic Profiling of Annotated Libraries Using Quantitative High-Throughput Screening (AID 1296008); also: nearly all actives have a fitted effect of over 60% in size
# experimental-parameters: Five cell lines viability, CellTiter-Glo ATP luminescence, 48-72 h
Results filed as inconclusive are left out. Active and inactive are the calls of the source. Calls follow the shape of the dose curve; as a rule, active = well fitted inhibition curve with a large enough effect; inconclusive = small, poorly fitted or top-dose-only effect; inactive = flat fitted curve, though single readings scatter.
In this exercise, the only acceptable responses are active, inactive

Recorded results for 5 compounds are shown here.
{"columns": ["compound", "class"],
 "data": [
  ["COc1cccc2c1[C@]13CCN(CC4CC4)[C@H](C2)[C@]1(OC)CCC(=O)C3", "inactive"],
  ["C[C@]12CC[C@H]3[C@@H](CCC4=CC(=O)CC[C@@]43C)[C@H]1CC[C@H]2OC(=O)CCC1CCCC1", "inactive"],
  ["CC[C@@H](C(N)=O)N1CCCC1=O", "inactive"],
  ["CO[C@H]1CCC(O[C@H]2C[C@H]([C@]3(C)CC[C@]4(C[C@H](O)[C@@H](C)[C@@H]([C@@H](C)C=C(C)C(=O)[C@H](C)C[C@H](C)C(=O)O)O4)O3)O[C@]3(O[C@@H]([C@H]4O[C@@](O)(CO)[C@H](C)C[C@H]4C)C[C@H]3C)[C@H]2C)O[C@H]1C (some centres undefined)", "active"],
  ["COC1=CC(C)=C[C@@H](C)[C@@H](O)[C@@H](C)CC(C)=CC=C[C@H](OC)[C@H]([C@@H](C)[C@@H](O)[C@H](C)[C@@]2(O)C[C@@H](O)[C@H](C)[C@@H](C(C)C)O2)OC1=O", "active"]
]}

Task: GET /call?item= NC1=NC(=O)N2CC12 (centres undefined) returns the recorded outcome of this test.
Output: active

Task: What do you get for CC[C@@]1(O)C(=O)OCc2c1cc1n(c2=O)Cc2cc3ccccc3nc2-1 ?
Output: active

Task: Again, but for NC1CC1c1ccccc1 (centres undefined)
Output: inactive

Task: Now the compound C=C[C@@H]1CN2CCC1C[C@@H]2[C@@H](O)c1ccnc2ccccc12 (some centres undefined)
Output: active

###

# assay-explanation: Quantitative High-Throughput drug screen in 47 multiple myeloma cell lines against the NCATS MIPE library collection: MM1S_ATCC cell viability assay (AID 1918980); also: nearly all actives have a fitted effect of over 45% in size
# experimental-parameters: MM1S myeloma viability, CellTiter-Glo ATP luminescence, 48 h; series mostly up to 45.8 µM
Records with an inconclusive call do not appear. Activity calls are given as the source filed them. Calls follow the shape of the dose curve; as a rule, active = well fitted cell-killing curve with a large enough effect; inconclusive = small, poorly fitted or top-dose-only effect, or effect the other way; inactive = no such curve, though single readings can be large or run the other way.
Could you please pick one outcome from this set? active, inactive

Solved cases below.
{"columns": ["compound", "class"],
 "data": [
  ["CC=C(C)C(=O)O[C@H]1C(C)=C2[C@@H]3OC(=O)[C@@](C)(O)[C@@]3(O)[C@@H](OC(=O)CCC)C[C@](C)(OC(C)=O)[C@@H]2[C@@H]1OC(=O)CCCCCCC", "active"],
  ["C#C[C@]1(O)C=C[C@@H]2[C@@H]3CCC4=CC(=O)CC[C@@H]4[C@H]3CC[C@@]21CC", "inactive"]
]}

Read the next record carefully.
Task: So what was the verdict on C#CC1(O)CCC2C3CCC4=CC(=O)CCC4(C)C3CCC21C (stereo not drawn) in this test?
Output: inactive

###

# assay-explanation: qHTS Screen of the MIPE 4.0 Collection Against Ewings Sarcoma (RDES) (AID 1259252); also: potency is read from the fitted curve at half-maximal effect; nearly all actives have a fitted effect of over 35% in size
# experimental-parameters: RD-ES Ewing sarcoma viability, CellTiter-Glo, 48 h; series mostly up to 45.8 µM
Results filed as inconclusive are left out. The source made the active and inactive calls. Calls follow the shape of the dose curve; as a rule, active = well fitted inhibition curve with a large enough effect; inconclusive = small, poorly fitted or top-dose-only effect; inactive = no such curve, though single readings can be large or run the other way.
Returns: one label drawn from active, inactive

Task: Field: outcome | Entry: COc1ccc(N(C(=O)Oc2c(C)cccc2C)c2ccnc(Nc3ccc(N4CCN(C)CC4)cc3)n2)c(OC)c1
Output: active

###

# assay-explanation: qHTS of pediatric cancer cell lines to identify multiple opportunities for drug repurposing: Confirmatory screen for Rh41 cells (AID 1347123);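 also: 48 h compound exposure; nearly all actives have a fitted effect of over 60% in size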
# experimental-parameters: Rh41 rhabdomyosarcoma cells, viability/cytotoxicity qHTS; series mostly up to 45.9 µM
Records with an inconclusive call do not appear. Activity calls are given as the source filed them. Calls come from the whole dose curve; as a rule, active = well fitted cell-killing curve with a large enough effect; inconclusive = small, poorly fitted or top-dose-only effect; inactive = no such curve, though single readings can be large or run the other way.
Hello, when you answer, please use one of the following outcomes: t = active, f = inactive

{"columns": ["compound", "class"],
 "data": [
  ["CC(=Cc1csc(C)n1)[C@@H]1C[C@H]2O[C@]2(C)CCC[C@H](C)[C@@H](O)[C@@H](C)C(=O)C(C)(C)[C@@H](O)CC(=O)O1", "t"],
  ["C=CCON=C(C[C@H]1O[C@@H]2O[C@]3(C)CC[C@@H]4[C@H](C)CC[C@@H]([C@H]1C)[C@@]24OO3)[C@H]1O[C@@H]2O[C@]3(C)CC[C@H]4[C@H](C)CC[C@@H]([C@@H]1C)[C@@]24OO3", "t"],
  ["CC1=C(O)C(=O)C=C2C1=CC=C1[C@@]2(C)CC[C@@]2(C)[C@@H]3C[C@](C)(C(=O)O)CC[C@]3(C)CC[C@]12C", "t"],
  ["Cc1ccccc1-n1c(Cn2cnc3c(N)ncnc32)nc2cccc(C)c2c1=O", "f"],
  ["O=[N+]([O-])c1c(Cl)c(Cl)cc(Cl)c1Cl", "f"]
]}

Task: Outcome logged for C[C@H]1CCCC=CC2C[C@H](O)C[C@@H]2[C@H](O)C=CC(=O)O1 (stereo partly specified) in this assay:
Output: t
